Target of assay: ALK2R206H (mutant ALK2, N-terminally tagged with GST) (Homo sapiens, UniProt Q04771, R206H)
Sequence (Q04771 21-509 R206H): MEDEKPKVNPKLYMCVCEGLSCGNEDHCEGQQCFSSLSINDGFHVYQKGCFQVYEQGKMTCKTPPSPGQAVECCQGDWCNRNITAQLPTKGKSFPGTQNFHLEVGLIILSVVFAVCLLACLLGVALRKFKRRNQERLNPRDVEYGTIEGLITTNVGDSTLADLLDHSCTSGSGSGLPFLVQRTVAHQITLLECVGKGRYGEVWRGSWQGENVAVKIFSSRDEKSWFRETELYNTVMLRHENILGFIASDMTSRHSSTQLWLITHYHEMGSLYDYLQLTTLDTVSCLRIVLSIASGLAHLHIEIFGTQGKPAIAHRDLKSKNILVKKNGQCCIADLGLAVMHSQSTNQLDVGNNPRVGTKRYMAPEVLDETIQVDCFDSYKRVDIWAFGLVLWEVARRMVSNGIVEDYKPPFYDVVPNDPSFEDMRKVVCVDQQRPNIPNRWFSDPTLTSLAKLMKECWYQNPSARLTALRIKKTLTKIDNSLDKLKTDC
Procedure details: ALK binding assay (LANTHASCREEN TR-FRET competitive binding, displacement of Kinase Tracer 178)
Assay conditions: read-out: Binding Assay (IC50 class)
pIC50: −log10 of the molar value.
Property name: pIC50

{"Compound": "CCOC(=O)N1CCN(c2ccnc3[nH]c(-c4cnn(C5COC5)c4)cc23)CC1", "pIC50": "≥ 8.00"}
{"Compound": "CCOC(=O)N1CCN(c2ccnc3[nH]c(-c4ccc(C)cn4)cc23)CC1", "pIC50": "≥ 8.00"}
{"Compound": "CCOC(=O)N1CCN(c2ccnc3[nH]c(-c4cnn(C(F)F)c4)cc23)CC1", "pIC50": "≥ 8.00"}
{"Compound": "Cn1cc(-c2cc3c(N4CCN(C(=O)[C@H]5CC[C@@H](O)CC5)CC4)ccnc3[nH]2)cn1", "pIC50": "7.30 to 8.00"}
{"Compound": "O=C(OC1COC1)N1CCN(c2ccnc3[nH]c(-c4ccc(C5(O)CCOCC5)cn4)cc23)CC1", "pIC50": "≥ 8.00"}
{"Compound": "CCOC(=O)N1CCN(c2ccnc3[nH]c(-c4nn(C)cc4C)cc23)CC1", "pIC50": "7.30 to 8.00"}
{"Compound": "O=C(C1CC1)N1CCN(c2ccnc3[nH]c(-c4ccc(C(F)(F)F)cc4Cl)cc23)CC1", "pIC50": "< 7.30"}
{"Compound": "O=C(C1CC1)N1CCN(c2ccnc3[nH]c(-c4cnn(Cc5ccccc5)c4)cc23)CC1", "pIC50": "≥ 8.00"}
{"Compound": "CC(C)COC(=O)N1CCN(c2ccnc3[nH]c(-c4cnn(C)c4)cc23)CC1", "pIC50": "≥ 8.00"}
{"Compound": "O=C(C1CC1)N1CCN(c2ccnc3[nH]c(-c4ccc(C5(O)CCC5)cc4)cc23)CC1", "pIC50": "≥ 8.00"}

// for each compound below, give its pIC50
1. Cn1cc(-c2cc3c(N4CCN(C(=O)CC5CC5)CC4)ccnc3[nH]2)cn1
2. Cn1cc(-c2cc3c(N4CCN(C(=O)OCC5CCCCO5)CC4)ccnc3[nH]2)cn1 (centres unmarked)
3. Cc1c(-c2cnn(C)c2)[nH]c2nccc(N3CCN(C(=O)OC4COC4)CC3)c12
4. CCCC(C)C(=O)N1CCN(c2ccnc3[nH]c(-c4cnn(C)c4)cc23)CC1 (centres unmarked)

["≥ 8.00", "≥ 8.00", "≥ 8.00", "≥ 8.00"]

// for each compound below, give its pIC50
1. CCOC(=O)N1CCN(c2ccnc3[nH]c(-c4cnc(C)nc4)cc23)CC1
2. CCOC(=O)N1CCN(c2ccnc3[nH]c(-c4ncc(C)s4)cc23)CC1
3. Cn1cc(-c2[nH]c3nccc(N4CCN(C(=O)OC5COC5)CC4)c3c2C#N)cn1

1. 7.30 to 8.00
2. ≥ 8.00
3. ≥ 8.00

// for each compound below, give its pIC50
1. CCOC(=O)N1CCN(c2ccnc3[nH]c(-c4ccn(C)n4)cc23)CC1
2. CN1CCN(c2ccc(-c3cc4c(N5CCN(C(=O)C6CC6)CC5)ccnc4[nH]3)cn2)CC1
3. Cn1cc(-c2cc3c(N4CCN(C(=O)OCCOC5CCCCC5)CC4)ccnc3[nH]2)cn1
4. O=C(OC1COC1)N1CCN(c2ccnc3[nH]c(-c4nc5c(s4)COCC5)c(Cl)c23)CC1

1: ≥ 8.00; 2: ≥ 8.00; 3: ≥ 8.00; 4: ≥ 8.00

// for each compound below, give its pIC50
1. Cc1nc(-c2[nH]c3nccc(N4CCN(C(=O)OC5COC5)CC4)c3c2C#N)sc1C
2. Cn1cc(-c2cc3c(N4CCN(C(=O)O[C@@H]5CCOC5)CC4)ccnc3[nH]2)cn1
3. O=C(C1CC1)N1CCN(c2ccnc3[nH]c(-c4ccc(N5CCN(C6COC6)CC5)cc4)cc23)CC1

["≥ 8.00", "≥ 8.00", "≥ 8.00"]

The measured values listed here are drawn from patent US11236086B2.
